# System: HS 578T breast
# experiment: NCI tumour cell line growth inhibition, 48 h
quantity kind: TGI

Specify TGI for Cc1c(NC(=S)N/N=C\C(=N/NC(=S)Nc2c(C)n(C)n(-c3ccccc3)c2=O)c2ccccc2)c(=O)n(-c2ccccc2)n1C and stop. > 100 µM

State its TGI: CN1c2ccccc2C(=O)NC12CCN(Cc1ccccc1)CC2 > 100 µM

Return TGI (reported value) for this molecule: Cc1ccc2ccc(=O)oc2c1 > 100 µM

Identify measured TGI associated with CCOC(=O)c1[nH]cnc1/N=N/N(C)N > 100 µM

State its TGI for this molecule: O=C(/C=C/C=C/c1ccccc1)CCc1ccccc1 > 100 µM

----------
# System: IGROV1 ovarian
# experiment: NCI tumour cell line growth inhibition, 48 h
quantity kind: TGI

Provide only the value of recorded TGI for COc1ccc(C2S/C(=C\c3cc(OC)c(OC)c(OC)c3)C(=O)N2NC(=O)Cc2ccccc2)cc1 (stereo not drawn) > 100 µM

Provide measured TGI value, entry: CCSCC(=O)N1CCc2c([nH]c3ccccc23)C1=O > 100 µM

Let me know recorded TGI for COC(=O)NC/C=C\c1nc(CC/C=C\C(=O)OC2CC3CC(=O)O[C@H](/C=C/CC(C)C)C[C@H]4CCC(C)C(C[C@H](OC)CC(C2)O3)O4)co1 (stereo partly drawn) , thanks. > 100 µM

----------
# Tested on: SNB-75 CNS
# experiment: NCI tumour cell line growth inhibition, 48 h
quantity kind: TGI

Return the recorded TGI value; entry: C=C(C)[C@@H]1CC[C@]2(CO)CC[C@]3(C)[C@H](CC[C@@H]4[C@@]5(C)CC[C@H](O)C(C)(C)[C@@H]5CC[C@]43C)[C@@H]12 28.9 µM

Give TGI for COc1ccc2nc(-c3ccccc3)cc(Nc3ccc(C(C)=O)cc3)c2c1 42.5 µM

Quickly give me recorded TGI for COc1cc(C(=O)O[C@H](C(=O)NCCNC(=O)[C@@H](OC(=O)c2cc(OC)cc3c(C)cccc23)[C@]2(C)CO2)[C@]2(C)CO2)c2cccc(C)c2c1 1.4 µM

Return TGI (reported value) for this compound: CC(C)=CCC/C(=C\CC/C(=C\CCc1ccoc1)C(=O)O)C(=O)O > 100 µM

Give reported TGI value for N#Cc1ccc(OC(=O)c2ccc(N=C(N)N)cc2)cc1 > 100 µM

Query TGI for Cc1cccc(C)c1NC(=O)/C(Cl)=C(/Cl)C(=O)O 43.4 µM

Give TGI for COc1ccc(C[C@H]2NC(=O)/C=C/C[C@@H]([C@H](C)[C@H]3O[C@@H]3c3ccccc3)OC(=O)[C@H](CC(C)C)OC(=O)[C@H](C)CNC2=O)cc1 > 9.19e-05 µM

Identify measured TGI associated with O=C(O)CS(=O)c1ccc2c3c(cccc13)C(=O)c1ccccc1-2 (configuration not stated) > 100 µM

Respond only with TGI recorded for CCOP(=O)(CC1CC(O)(CNc2cc(Cl)nc(N)n2)C1)OCC (configuration not stated) > 100 µM

Using the record for O=c1[nH]nc(-c2ccc([N+](=O)[O-])cc2)n1/N=C/c1ccc([N+](=O)[O-])cc1 , state its measured TGI. > 100 µM

Identify the reported TGI for the following entry. CC(C)=CC(C)C(C(O)CCC1(c2ccoc2)OCCO1)S(=O)(=O)c1ccccc1 (configuration not stated) > 100 µM

For CC(=O)[CH-]C(=O)c1ccccc1.CC(=O)[CH-]C(=O)c1ccccc1.CC(=O)[CH-]C(=O)c1ccccc1.[Tl+3] , write its TGI. > 100 µM

For the compound C/C=C1/CN2[C@@H](C3=C[C@@H]4[C@@H]5N(C3=O)c3ccccc3[C@@]53CCN5C/C(=C/C)[C@@H]4C[C@H]53)C[C@@]34c5ccccc5N5C(=O)CC=C([C@H]1C[C@H]23)[C@H]54 , give its reported TGI. 17.4 µM

Supply recorded TGI for O=[N+]([O-])c1ccc(Sc2c3ccccc3nc3ccccc23)cc1 here. > 100 µM

Determine its reported TGI: O=C(O)c1c2c(c(C(=O)O)c3ccccc13)-c1ccccc1-2 > 100 µM

Specify reported TGI for the compound shown: CCSCC(=O)N1CCc2c([nH]c3ccccc23)C1=O > 100 µM

For the compound O=C1CSC(c2cccc(Cl)c2)N1c1c(O)c(Cl)cc(Br)c1Cl (configuration not stated) , give its reported TGI. > 100 µM

Item CCOc1cc2c(cnc3c4cc(OC)c(OC)cc4ccc23)cc1OC : provide TGI > 100 µM

For the compound N#CCN1CCCCCc2ccccc21 , report TGI. > 100 µM

Name the recorded TGI of the compound listed here: COc1cc(CCNC2=CC(=O)c3cccnc3C2=O)ccc1O 2.06 µM

Give the reported TGI for this compound. COC(=O)c1c(O)ccc2c1c1c(n2Cc2ccc(OC)cc2)C(=O)c2ccccc2C1=O 85.8 µM

Given CC1(CCc2ccccc2)CC1(Br)Br (configuration not stated) , respond with its TGI. > 100 µM
